We begin with a simple list: items and their reported melting point.

Some entries whose results are on file:
>>> result("CSc1nnc(-c2ccc(-c3ccccc3)cc2)n1-c1ccccc1F")
"199 to 200 °C"
>>> result("Nc1c(C(=O)c2cc(F)cc(F)c2)[nH]c2cc(Cl)ccc12")
"149 to 151 °C"
>>> result("CC(C)(C)C(=O)c1c(CC(C)(C)C(=O)O)n(Cc2ccc(Cl)cc2)c2ccc(OCc3ccc4occc4n3)cc12")
"160 °C"
>>> result("CCn1ncnc1COc1nc2c(-c3ccccc3)nnc(C)n2c1C1CCCC1")
"94 to 96 °C"
>>> result("COc1ccc(OC)c(Cc2ccc3[nH]c(=S)[nH]c3c2)c1")
"210 to 211 °C"
>>> result("CCCc1nc2c(N)nc3ccccc3c2n1CCC1(O)CCOCC1")
"181 to 183 °C"

Short answer for `COC(=O)c1coc2cc(O)ccc12` : melting point was 200 to 201 °C

Short answer for `CN1CCC2(CC1)c1ccccc1Cc1ccccc12` : melting point was 132 to 134 °C

Short answer for `O=S(=O)(Nc1ccc(Cl)cc1-c1cc(-c2ccc(Cl)cc2Cl)on1)C(F)(F)F` : melting point was 142 to 144 °C

Short answer for `CCSc1ccc2c(c1)C(=O)Cc1ccccc1N2C` : melting point was 54 to 55 °C
